Here, compounds appear alongside pIC50 reported for Receptor-type tyrosine-protein kinase FLT3 (Homo sapiens) in the literature.
The value called pIC50 is obtained by taking minus log10 of the concentration in mol/L.

>  <compound>
O=C(Nc1ccc(N2CCNCC2)cc1)c1n[nH]cc1Nc1cc(C2=CCOCC2)ncn1

>  <pIC50>
7.60

$$$$

// map `CN1CCN(Cc2ccc(NC(=O)c3n[nH]cc3Nc3cc(C4CCCC4)ncn3)cc2)CC1` to recorded pIC50 (system: Receptor-type tyrosine-protein kinase FLT3 (Homo sapiens))
Sequence (P36888 whole entry): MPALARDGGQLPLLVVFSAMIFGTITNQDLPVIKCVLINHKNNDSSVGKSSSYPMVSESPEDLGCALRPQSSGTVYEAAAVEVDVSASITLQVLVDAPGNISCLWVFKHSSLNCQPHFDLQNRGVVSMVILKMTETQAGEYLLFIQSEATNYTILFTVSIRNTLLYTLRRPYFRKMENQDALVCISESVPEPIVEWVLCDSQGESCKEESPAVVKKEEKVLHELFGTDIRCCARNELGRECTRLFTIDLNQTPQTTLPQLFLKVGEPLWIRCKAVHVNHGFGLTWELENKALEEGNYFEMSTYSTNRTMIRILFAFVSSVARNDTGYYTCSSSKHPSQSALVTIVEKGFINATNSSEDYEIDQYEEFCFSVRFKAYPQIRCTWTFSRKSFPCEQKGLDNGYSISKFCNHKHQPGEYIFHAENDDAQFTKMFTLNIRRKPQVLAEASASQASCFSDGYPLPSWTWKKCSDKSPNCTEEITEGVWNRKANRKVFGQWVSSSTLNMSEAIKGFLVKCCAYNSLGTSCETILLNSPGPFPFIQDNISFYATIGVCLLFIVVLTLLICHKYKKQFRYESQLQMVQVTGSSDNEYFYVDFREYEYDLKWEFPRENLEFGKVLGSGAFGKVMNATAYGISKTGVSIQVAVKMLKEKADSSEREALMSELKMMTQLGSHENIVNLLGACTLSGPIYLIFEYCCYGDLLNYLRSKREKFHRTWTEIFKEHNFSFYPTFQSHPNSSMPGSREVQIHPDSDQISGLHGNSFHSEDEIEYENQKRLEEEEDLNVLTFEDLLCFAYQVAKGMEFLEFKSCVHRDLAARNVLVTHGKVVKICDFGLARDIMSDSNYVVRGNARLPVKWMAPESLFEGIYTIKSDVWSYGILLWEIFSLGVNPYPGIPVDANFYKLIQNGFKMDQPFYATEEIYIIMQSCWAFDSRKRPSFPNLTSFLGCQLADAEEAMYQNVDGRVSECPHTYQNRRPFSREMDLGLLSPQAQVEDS
7.71

// map `CC1(COc2ccc(Nc3ncc(C(F)(F)F)c(NC4CCNCC4)n3)cc2)COC1` to recorded pIC50 (system: Receptor-type tyrosine-protein kinase FLT3 (Homo sapiens))
7.54

// map `COCCOc1cc2c(Oc3cnn(CC(=O)Nc4cccc(OC)c4)c3)ncnc2cc1OC` to recorded pIC50 (system: Receptor-type tyrosine-protein kinase FLT3 (Homo sapiens))
8.52
